Biological target: T1, Extracellular domain of human PD1 (huPD1-ECD) (human, UniProt Q15116 25-169, biotinylated in the ligand inhibition assay (sites not given))
T1 construct: Expressed with a hexahistidine tag or as Fc fusion; also called biotinylated PD-1
T1 sequence (Q15116 25-169 limits assumed): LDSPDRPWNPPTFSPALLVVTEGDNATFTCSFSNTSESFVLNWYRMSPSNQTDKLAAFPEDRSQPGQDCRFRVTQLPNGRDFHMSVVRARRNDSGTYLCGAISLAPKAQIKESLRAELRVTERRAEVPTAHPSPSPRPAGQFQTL
Assay: SPR ProteOn, captured mAb, huPD1-ECD analyte;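 also: SPR on ProteOn XPR36, antibodies captured by anti-IgG Fc on a GLC chip, data fitted with a Langmuir 1:1 model to give on-rate, off-rate and equilibrium KD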
measure: Kd (nM)
Note: unit nM is implicit; provide only the numeric part.

For orientation, consider the following solved cases.
binder: PD1B196 (antibody, V domains shown, also called PD1H170/PD1L148) VH: QVQLVQSGAEVKKPGSSVKVSCKASGGTFSSYAISWVRQAPGQGLEWMGGIIPIFDTANYAQKFQGRVTITADESTSTAYMELSSLRSEDTAVYYCARPGLAAAYDTGSLDYWGQGTLVTVSS VL: EIVLTQSPATLSLSPGERATLSCRASQSVRSYLAWYQQKPGQAPRLLIYDASNRATGIPARFSGSGSGTDFTLTISSLEPEDFAVYYCQQRNYWPLTFGQGTKVEIK
Kd, nM: 0.41
//
binder: PD1B198 (antibody, V domains shown, also called PD1H163/PD1L187) VH: QVQLVQSGAEVKKPGSSVKVSCKASGGTFKSYVIHWVRQAPGQGLEWMGGIIPIFGTANYAQKFQGRVTITADESTSTAYMELSSLRSEDTAVYYCARGYVRATGMLDYWGQGTLVTVSS VL: EIVLTQSPATLSLSPGERATLSCRASQSVSSYLAWYQQKPGQAPRLLIEDASSRATGIPARFSGSGSGTDFTLTISSLEPEDFAVYYCQQRAEWPLTFGQGTKVEIK
Kd, nM: 10.4

Query block: Which Kd is listed for PD1B194 (antibody, V domains shown, also called PD1H170/PD1L71) VH: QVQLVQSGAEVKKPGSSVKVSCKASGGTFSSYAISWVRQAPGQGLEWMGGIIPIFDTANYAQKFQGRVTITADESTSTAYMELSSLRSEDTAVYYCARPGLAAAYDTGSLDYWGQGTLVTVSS VL: EIVLTQSPATLSLSPGERATLSCRASQSVRSYLAWYQQKPGQAPRLLIYDASYRATGIPARFSGSGSGTDFTLTISSLEPEDFAVYYCQQRDYWPLTFGQGTKVEIK ?
Result block: 1.07
